The reported measurements were obtained from ChEMBL document CHEMBL1201862.

- Test system: LOX IMVI
- EXPERIMENT: NCI tumour cell line growth inhibition, 48 h
Activity calls are given as the source filed them. Rule as the data show it: active = GI50 up to about 1.1 µM and inactive = higher.
Pick one and only one: active, inactive

Example entries begin here.
{"columns": ["MOLECULE", "EXPERIMENTAL SYSTEM", "CAT"],
 "data": [
  ["CCOC(=O)Nc1ccc(S(=O)(=O)OC)cc1.CCOC(=O)Nc1ccc(S(=O)(=O)OC)cc1.NNC(=O)c1ccncc1", "LOX IMVI", "inactive"],
  ["NNC(=O)CC(=O)Nc1ccccc1Cl", "LOX IMVI", "inactive"],
  ["C(=N\\NC1=NCCN1)/c1ccc(-c2cn3cc(/C=N/NC4=NCCN4)ccc3n2)cc1", "LOX IMVI", "inactive"],
  ["CC(C)(C)C(=O)C(Cc1ccccc1)C(=O)C(C)(C)C", "LOX IMVI", "inactive"],
  ["COc1ccc(/C=C/C(=O)c2nc3ccccc3[nH]2)cc1", "LOX IMVI", "inactive"],
  ["CCCCCCCC(=O)OCC1OC(OC)C(NC(=O)N(CCCl)N=O)C(O)C1O (configuration not stated)", "LOX IMVI", "active"],
  ["O=C1/C(=C/c2cccc(F)c2)CCCc2ccccc21", "LOX IMVI", "inactive"],
  ["O=C1CSC(c2cccc(Cl)c2)N1c1c(O)c(Cl)cc(Br)c1Cl (configuration not stated)", "LOX IMVI", "inactive"]
]}

*Q* Tell me the recorded outcome of this test for Cn1c(=O)c(C#N)c(O)c2cc3ccccc3nc21 .
*A* inactive

*Q* Tell me the recorded outcome of this test for COc1ccccc1CNC1=Nc2ccncc2S(=O)(=O)N1c1ccccc1 .
*A* inactive

*Q* Tell me the recorded outcome of this test for C=C(CN(C)C)C(=O)c1ccccc1C .
*A* inactive

*Q* Tell me the recorded outcome of this test for CC1(C(=O)Nc2ccc3cc4ccccc4cc3c2)CC2(C)CC(C)(C1)C(O)NC2=O (configuration not stated) .
*A* inactive

----------
- Tested on: SR
- EXPERIMENT: NCI tumour cell line growth inhibition, 48 h
Calls of active or inactive are those of the source. Rule as the data show it: active = GI50 up to about 1.1 µM and inactive = higher.
Pick one and only one: active, inactive

Example entries begin here.
{"columns": ["MOLECULE", "EXPERIMENTAL SYSTEM", "CAT"],
 "data": [
  ["CC1=C2CN(C(=O)OCC(C)C)CCC2C2=C(C(=O)c3ccccc3C2=O)C1C (stereo not given)", "SR", "inactive"],
  ["CC(C)C(OC(=O)c1ccc(NCC2=CC(=O)C=CC2=O)cc1)C(C)C", "SR", "inactive"],
  ["c1ccc2c(c1)Nc1c3ccccc3nc3cccc-2c13", "SR", "active"],
  ["O=C1CSC(/C=C/c2ccccc2)N1c1nc2cc3sc(N4C(=O)CSC4/C=C/c4ccccc4)nc3cc2s1 (stereo not given)", "SR", "inactive"],
  ["CC1(C2(C)OC(=O)c3ccccc32)OC(=O)c2ccccc21 (stereo not given)", "SR", "inactive"]
]}

Shift focus to the following entry.
*Q* Tell me the recorded outcome of this test for O=C1CCN2C(=N1)Sc1ccccc12 .
*A* inactive

----------
- System: CAKI-1
- EXPERIMENT: NCI tumour cell line growth inhibition, 48 h
Calls of active or inactive are those of the source. Rule as the data show it: active = GI50 up to about 1.1 µM and inactive = higher. Starred links: 1 amine or outer side, 2 acyl side, 3 side chain; linkers in the order of their positions; H or OH if unused. Non-standard residues stand in square brackets, D forms with d. Residues, ends and D or L forms follow the SMILES beside them. X35 = C=CCC(O[*:1])C(=O)[*:2]; NMeV = CN[CH](C(=O)O)C(C)C; NMeA = CN[CH](C)C(=O)O; βAla = NCCC(=O)O
Pick one and only one: active, inactive

Example entries begin here.
{"columns": ["MOLECULE", "CAT"],
 "data": [
  ["COc1c(OC(C)C)cc2cc(O)c(C(=O)NC3Cc4ccc(c(Cl)n4)O[C@@H]4C=C5C#C/C(=C\\C#CC6OC56C4OC4CC(C)(O)C(O)C(C)O4)C(OC4CC(O)C(N(C)C)C(C)O4)COC3=O)cc2c1OC (stereo partly drawn)", "inactive"],
  ["COc1ccc(NC(=O)C(=O)c2c(O)c3ccc(O)cc3oc2=O)c([N+](=O)[O-])c1", "inactive"],
  ["C=CCN1C(=O)/C(=C/c2ccccc2)NC1=S", "inactive"],
  ["FC(F)(F)c1cc(N(C2c3ccccc3C=Cc3ccccc32)P(Cl)Cl)cc(C(F)(F)F)c1", "inactive"]
]}

*Q* Tell me the recorded outcome of this test for CCOc1ccc(NC(=O)/C(=C/c2ccccc2)C(C)=O)cc1 .
*A* inactive

*Q* Tell me the recorded outcome of this test for NC(=O)CC1OC(=O)Cc2cc3c(c(O)c21)C(=O)c1c(O)cccc1C3=O (stereo not drawn) .
*A* inactive

*Q* Tell me the recorded outcome of this test for CC1=CCC23C(C1)OC(Br)(C=CC2(C)O)C3(C)C (stereo not drawn) .
*A* inactive

*Q* Tell me the recorded outcome of this test for COC(=O)c1ccccc1N(C(=O)c1ccccc1)c1ccccc1C .
*A* inactive

*Q* Tell me the recorded outcome of this test for O=[N+]([O-])c1cccc2nc3ccccc3c(NCCCCCNc3c4ccccc4nc4cccc([N+](=O)[O-])c34)c12 .
*A* active

*Q* Tell me the recorded outcome of this test for CCO[C@@]1(COCc2ccccc2)OC(=O)C[C@@H]1N1C(=O)OC[C@@H]1c1ccccc1 .
*A* inactive

*Q* Tell me the recorded outcome of this test for C=CCC1OC(=O)CCNC(=O)C(C)N(C)C(=O)C(C(C)C)N(C)C(=O)C(C(C)CC)NC(=O)C2CCCN2C1=O (stereo not drawn) (cyclo([X35]PI[NMeV][NMeA][βAla]); configuration not given here) .
*A* inactive

*Q* Tell me the recorded outcome of this test for COc1cc(C2c3cc4c(cc3C3OC[C@@H]2C3CO)OCO4)cc(OC)c1OC (stereo partly drawn) .
*A* inactive

*Q* Tell me the recorded outcome of this test for CC1=C2CN(C(=O)OCC(C)C)CCC2C2=C(C(=O)c3ccccc3C2=O)C1C (stereo not drawn) .
*A* inactive

----------
# GI50 measurements, system: HCT-15
Kindly provide the numeric value in µM only, without the unit symbol.

{"columns": ["COMPOUND", "GI50 (µM)"],
 "data": [
  ["COC(=O)[C@@H]1C=C[C@H](OC2OC(COC(C)=O)C(OC(C)=O)C(OC(C)=O)C2OC(C)=O)n2c(=O)n(-c3ccccc3)c(=O)n21 (stereo not given in full)", 1.84],
  ["CCN(CC)CC(O)CNc1ccc(NCC2CO2)c2c1C(=O)c1ccccc1C2=O (stereo not given)", 0.638]
]}

Let us move to another entry and its GI50.
Bench note, HCT-15: CC(C)(C)OC(=O)NCCCC(=O)NC1(c2cc3ccccc3s2)CCCCC1 , GI50 reads 15.6

----------
- System: SNB-19
- EXPERIMENT: NCI tumour cell line growth inhibition, 48 h
The source made the active and inactive calls. Cut-off read from the data, not from the text of the source: active = GI50 up to about 1.1 µM and inactive = higher.
METRIC NAME: GI50

Consider the following illustrative entries.
{"columns": ["COMPOUND STRUCTURE STRING", "RESULT"],
 "data": [
  ["C(=N\\NC1=NCCN1)/c1ccc(-c2cn3cc(/C=N/NC4=NCCN4)ccc3n2)cc1", "> 43.1 µM (inactive)"],
  ["c1ccc2c(c1)Nc1c3ccccc3nc3cccc-2c13", "1.82 µM (inactive)"],
  ["NC(=O)/N=C1/CCC2C3CCCC2C13", "> 100 µM (inactive)"],
  ["COC(=O)c1cc2c(=O)n(C)c3ccccc3n2c1C(=O)OC", "34.7 µM (inactive)"],
  ["C[N+](C)(CCNc1ccc(NCC[N+](C)(C)Cc2ccc([N+](=O)[O-])cc2)c2c1C(=O)c1ccccc1C2=O)Cc1ccc([N+](=O)[O-])cc1", "> 100 µM (inactive)"]
]}

The recorded GI50 for O=C(/C=C/c1ccc(Cl)c(Cl)c1)c1ccc2ccccc2c1 is > 100 µM (inactive)

The recorded GI50 for S=C1CCSc2c(ccc3ccccc23)N1 is 95.5 µM (inactive)

The recorded GI50 for C(CCCCc1nnc(N2CCCCC2)o1)CCCc1nnc(N2CCCCC2)o1 is > 100 µM (inactive)

The recorded GI50 for COc1ccc(-c2nc(SCC(=O)N/N=C/c3ccc(N(C)C)cc3)[nH]c2-c2ccc(OC)cc2)cc1 is > 100 µM (inactive)

The recorded GI50 for COc1ccc(/C=C2\CSC/C(=C\c3ccc(OC)c(OC)c3OC)C2=O)c(OC)c1OC is > 100 µM (inactive)

----------
- Test system: HL-60
- EXPERIMENT: NCI tumour cell line growth inhibition, 48 h
Active and inactive are the calls of the source. No stated cut-off is given here; in the data, active = GI50 up to about 1.1 µM and inactive = higher.
Pick one and only one: active, inactive

Example entries begin here.
{"columns": ["COMPOUND", "CAT"],
 "data": [
  ["O=C1/C(=C/c2cccc(F)c2)CCCc2ccccc21", "inactive"],
  ["NNC(=O)CC(=O)Nc1ccccc1F", "inactive"]
]}

*Q* Tell me the recorded outcome of this test for NC(=O)CC1OC(=O)Cc2cc3c(c(O)c21)C(=O)c1c(O)cccc1C3=O (configuration not stated) .
*A* inactive

*Q* Tell me the recorded outcome of this test for O=C1Nc2ccc(Cl)cc2/C1=C\c1c(Cl)nc2sccn12 .
*A* inactive
